study.system: T1, human AXL transiently expressed by HEK-293F cells (Homo sapiens, UniProt P30530)
T1 construct: TH1021-AXL (HEK-293F cells transiently expressing full length human AXL; produced as described above); expressed in transfected cells; host or cells: HEK-293F
method: Homogeneous antigen specific screening assay (FMAT)
Format: binding
# Maximal binding (Arbitrary units) values compiled below
The number alone won't do; follow it with the unit.

These recorded examples may help you get a feel for the data.
>  <molecule>
IgG1-AXL-726: AXL-specific human IgG1,κ antibody, VH SEQ ID NO:31, VL SEQ ID NO:33, FN2 domain binding (antibody, listed as Homo sapiens, V domains shown) VH: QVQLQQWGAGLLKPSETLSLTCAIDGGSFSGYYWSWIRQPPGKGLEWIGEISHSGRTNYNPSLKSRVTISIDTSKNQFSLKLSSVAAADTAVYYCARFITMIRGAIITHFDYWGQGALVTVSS VL: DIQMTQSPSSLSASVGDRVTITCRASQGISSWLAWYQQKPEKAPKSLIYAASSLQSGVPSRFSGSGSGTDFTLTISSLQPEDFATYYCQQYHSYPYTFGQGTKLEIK

>  <Maximal binding (Arbitrary units)>
3154 Arbitrary units

$$$$
>  <molecule>
IgG1-AXL-148: AXL-specific human IgG1,κ antibody, VH SEQ ID NO:5, VL SEQ ID NO:6, Ig2 domain binding (antibody, listed as Homo sapiens, V domains shown) VH: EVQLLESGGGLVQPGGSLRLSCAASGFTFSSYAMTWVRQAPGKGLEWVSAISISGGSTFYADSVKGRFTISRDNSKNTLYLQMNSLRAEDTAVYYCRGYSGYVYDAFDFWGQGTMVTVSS VL: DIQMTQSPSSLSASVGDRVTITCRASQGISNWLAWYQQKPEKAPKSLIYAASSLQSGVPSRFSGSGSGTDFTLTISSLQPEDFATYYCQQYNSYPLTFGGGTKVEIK

>  <Maximal binding (Arbitrary units)>
3499 Arbitrary units

$$$$
>  <molecule>
IgG1-AXL-187: AXL-specific human IgG1,κ antibody, VH SEQ ID NO:19, VL SEQ ID NO:20 (antibody, listed as Homo sapiens, V domains shown) VH: QVPLQQWGAGLLKPSETLSLTCAVYGGSFSGYHWSWIRQPPGKGLEWIGEISHSGRTNYNPSLKSRVTISIDTSKNQFSLKLSSVTAADTAVYYCASFITMIRGTIITHFDYWGQGTLVTVSS VL: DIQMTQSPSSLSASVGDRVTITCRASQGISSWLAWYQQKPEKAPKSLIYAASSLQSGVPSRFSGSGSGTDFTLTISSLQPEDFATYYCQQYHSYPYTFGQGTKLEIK

>  <Maximal binding (Arbitrary units)>
2563 Arbitrary units

$$$$

For the next question, use this molecule.
Query string: Maximal binding (Arbitrary units) for IgG1-AXL-140: AXL-specific human IgG1,κ antibody, VH SEQ ID NO:3, VL SEQ ID NO:4 (antibody, listed as Homo sapiens, V domains shown) VH: EVQLLESGGGLVQPGGSLRLSCAASGFTFSSYAMTWVRQAPGKGLEWVSAISISGASTFYADSVKGRFTISRDNSKNTLSLQMNSLRAEDTAVYFCRGYSGYVYDAFDIWGQGTMVTVSS VL: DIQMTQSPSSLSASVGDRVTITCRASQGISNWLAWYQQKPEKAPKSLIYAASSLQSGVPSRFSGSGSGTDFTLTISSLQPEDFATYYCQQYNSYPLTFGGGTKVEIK ?
Result string: 2889 Arbitrary units

These data points were gathered from patent US20230321261A1.
